Assay: Pharmacokinetics, single oral gavage, CD-1 mice
Type: in vivo, female CD-1 mice
Settings: female, CD-1, mouse, plasma, 100 mg/kg, 240 min, read-out: Average Concentration of HGT3711
Experimental: CFMQ (HGT3711) was administered to fasted female CD-1 mice (n=18/dose group) by a single oral gavage at 100, 250 and 450 mg/kg in a dose volume of 5 mL/kg in a spray-dried dispersion formulation (discussed below). […] Plasma concentrations of CFMQ (HGT3711) were determined by LC-MS/MS (liquid chromatography mass spectrometry) and concentrations below the limit of quantitation (3 ng/mL) were assigned a value of zero for pharmacokinetic analysis. […]
measured.parameter: concentration at 240 min (µg/mL)
Give bare numbers, in µg/mL.

The recorded concentration at 240 min for Cc1cc(Cl)c(COc2cccc3c(-n4cc(F)cn4)cc(C)nc23)c(Cn2cccc(C#N)c2=O)n1 is 0.078
